- Species: Felis catus
- PROCEDURE DETAILS: Effective dose to cat pupil diameter constriction

| COMPOUND | UNITS SYMBOL | ED5 |
| --- | --- | --- |
| CC(C)OC(=O)CCC/C=C/C[C@@H]1[C@@H](/C=C/C(O)COc2cccc(C(F)(F)F)c2)[C@H](O)C[C@@H]1O (stereo not given in full) | µg | 0.01 |
| CC(C)OC(=O)CCC/C=C\C[C@H]1[C@@H](O)CO[C@@H]1/C=C/[C@@H](O)COc1cccc(Cl)c1 | µg | 0.8 |
| CC(C)OC(=O)CCC/C=C\CC[C@H]1[C@@H](O)CO[C@@H]1/C=C/[C@@H](O)COc1cccc(Cl)c1 [AL-12182] | µg | 0.2 |
| CC(C)OC(=O)CCC/C=C/C[C@@H]1[C@@H](CC[C@@H](O)CCc2ccccc2)[C@H](O)C[C@@H]1O | µg | 0.13 |
| CCCCC[C@H](O)/C=C/C1[C@H](O)C[C@H](O)[C@@H]1C/C=C\CCCC(=O)OC(C)C (stereo not given in full) | µg | 0.03 |

* * *

Here the recorded Response is given for each entry.
- TARGET SYSTEM: Prostaglandin F2-alpha receptor (Mus musculus) (UniProt P43117)
- Sequence (P43117 whole entry, looked up): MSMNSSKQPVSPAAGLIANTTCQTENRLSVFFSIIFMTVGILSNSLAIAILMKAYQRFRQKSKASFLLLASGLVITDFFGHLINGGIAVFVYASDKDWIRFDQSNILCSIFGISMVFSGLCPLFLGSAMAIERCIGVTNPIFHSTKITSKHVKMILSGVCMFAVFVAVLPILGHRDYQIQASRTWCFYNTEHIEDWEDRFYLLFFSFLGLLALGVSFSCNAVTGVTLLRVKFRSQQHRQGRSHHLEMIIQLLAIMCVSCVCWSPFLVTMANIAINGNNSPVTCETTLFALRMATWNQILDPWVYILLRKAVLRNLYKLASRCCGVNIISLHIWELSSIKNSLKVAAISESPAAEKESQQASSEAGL
- PROCEDURE DETAILS: Percent response for stimulation of prostanoid FP receptor-linked phosphoinositide turnover in Swiss 3T3 mouse fibroblast cells
MEASURED METRIC: Response (%)

| COMPOUND | TARGET SYSTEM | UNITS SYMBOL | NUMERIC VALUE |
| --- | --- | --- | --- |
| O=C(O)CC/C=C\CCC[C@H]1[C@@H](O)CO[C@@H]1/C=C/[C@@H](O)COc1cccc(C(F)(F)F)c1 | Prostaglandin F2-alpha receptor (Mus musculus) (UniProt P43117) | % | 88 |
| CC(C)OC(=O)CCC/C=C/C[C@@H]1[C@@H](/C=C/C(O)COc2cccc(C(F)(F)F)c2)[C@H](O)C[C@@H]1O (some centres undefined) | Prostaglandin F2-alpha receptor (Mus musculus) (UniProt P43117) | % | 100 |
| O=C(O)CC/C=C\CCC[C@H]1[C@@H](O)CO[C@@H]1/C=C/[C@H](O)COc1ccccc1 | Prostaglandin F2-alpha receptor (Mus musculus) (UniProt P43117) | % | 59 |
| O=C(O)CCCC/C=C\C[C@H]1[C@@H](O)CO[C@@H]1/C=C/[C@@H](O)COc1cccc(Cl)c1 | Prostaglandin F2-alpha receptor (Mus musculus) (UniProt P43117) | % | 84 |

* * *

- TARGET SYSTEM: Prostaglandin F2-alpha receptor (Mus musculus)
- PROCEDURE DETAILS: Percent response for stimulation of prostanoid FP receptor-linked phosphoinositide turnover in Swiss 3T3 mouse fibroblast cells
Label class 1 when Response is at or above 70%; otherwise label class 0.

| SMILES STRING | QUALITATIVE LABEL |
| --- | --- |
| CCCCC[C@H](O)/C=C/[C@H]1OC[C@H](O)[C@@H]1C/C=C\CCCC(=O)O | class 0 |
| O=C(O)CCCC/C=C\C[C@H]1[C@@H](O)CO[C@@H]1/C=C/[C@@H](O)COc1ccccc1 | class 0 |
| O=C(O)CCCC/C=C\C[C@H]1[C@@H](O)CO[C@@H]1/C=C/[C@H](O)COc1ccccc1 | class 0 |
| O=C(O)CCCC/C=C\C[C@H]1[C@@H](O)CO[C@@H]1/C=C/[C@@H](O)COc1cccc(C(F)(F)F)c1 | class 1 |
| O=C(O)CCCC/C=C\C[C@H]1[C@@H](O)CO[C@@H]1/C=C/[C@H](O)COc1cccc(C(F)(F)F)c1 | class 0 |
| O=C(O)CC/C=C\CCC[C@H]1[C@@H](O)CO[C@@H]1/C=C/[C@@H](O)COc1cccc(Cl)c1 | class 1 |
| O=C(O)CC/C=C\CCC[C@H]1[C@@H](O)CO[C@@H]1/C=C/[C@@H](O)COc1ccccc1 | class 1 |
| CC(C)OC(=O)CCC/C=C/C[C@@H]1[C@@H](CC[C@@H](O)CCc2ccccc2)[C@H](O)C[C@@H]1O | class 1 |
| O=C(O)CCCC/C=C\C[C@H]1[C@@H](O)CO[C@@H]1/C=C/[C@H](O)COc1cccc(Cl)c1 | class 0 |
| O=C(O)CC/C=C\CCC[C@H]1[C@@H](O)CO[C@@H]1/C=C/[C@H](O)COc1cccc(C(F)(F)F)c1 | class 0 |

* * *

- Organism: Oryctolagus cuniculus
- PROCEDURE DETAILS: Effective dose estimated to elicit conjunctival hyperemia in rabbits over 4 h
- Assay type: functional, Conjunctiva
Here the recorded ED5 is given for each entry.

| MOLECULE | RESULT QUALIFIER | ED5, µg |
| --- | --- | --- |
| CC(C)OC(=O)CCC/C=C/C[C@@H]1[C@@H](CC[C@@H](O)CCc2ccccc2)[C@H](O)C[C@@H]1O | = | 1.8 |
| CC(C)OC(=O)CCC/C=C/C[C@@H]1[C@@H](/C=C/C(O)COc2cccc(C(F)(F)F)c2)[C@H](O)C[C@@H]1O (stereo not given in full) | = | 3 |
| CC(C)OC(=O)CCC/C=C\CC[C@H]1[C@@H](O)CO[C@@H]1/C=C/[C@@H](O)COc1cccc(Cl)c1 | = | 30 |
| CC(C)OC(=O)CCC/C=C\C[C@H]1[C@@H](O)CO[C@@H]1/C=C/[C@@H](O)COc1cccc(Cl)c1 | = | 30 |
| CCCCC[C@H](O)/C=C/C1[C@H](O)C[C@H](O)[C@@H]1C/C=C\CCCC(=O)OC(C)C (stereo not given in full) | < | 0.1 |

* * *

pKi: −log10 of the molar value.
Reported values: pKi for Prostaglandin F2-alpha receptor (Bos taurus, UniProt P37289), one per item.

| MOLECULE | RESULT QUALIFIER | pKi |
| --- | --- | --- |
| O=C(O)CC/C=C\CCC[C@H]1[C@@H](O)CO[C@@H]1/C=C/[C@@H](O)COc1cccc(Cl)c1 | = | 6.83 |
| CCCCC[C@@H](O)/C=C/[C@H]1OC[C@H](O)[C@@H]1C/C=C\CCCC(=O)O | < | 5.00 |
| CCCCC[C@H](O)/C=C/[C@H]1OC[C@H](O)[C@@H]1C/C=C\CCCC(=O)O | = | 5.17 |
| O=C(O)CCCC/C=C\C[C@H]1[C@@H](O)CO[C@@H]1/C=C/[C@H](O)COc1cccc(C(F)(F)F)c1 | < | 5.00 |
| O=C(O)CC/C=C\CCC[C@H]1[C@@H](O)CO[C@@H]1/C=C/[C@@H](O)COc1ccccc1 | = | 6.48 |
| O=C(O)CCCC/C=C\C[C@H]1[C@@H](O)CO[C@@H]1/C=C/[C@H](O)COc1cccc(Cl)c1 | = | 5.14 |
| CC(C)OC(=O)CCC/C=C/C[C@@H]1[C@@H](/C=C/C(O)COc2cccc(C(F)(F)F)c2)[C@H](O)C[C@@H]1O (some centres not stated) | = | 7.28 |

Entry source: ChEMBL document CHEMBL1137983
